Values were extracted from paper PMC4134686.

Target: EcSecA (Escherichia coli)
Sequence (P10408 whole entry): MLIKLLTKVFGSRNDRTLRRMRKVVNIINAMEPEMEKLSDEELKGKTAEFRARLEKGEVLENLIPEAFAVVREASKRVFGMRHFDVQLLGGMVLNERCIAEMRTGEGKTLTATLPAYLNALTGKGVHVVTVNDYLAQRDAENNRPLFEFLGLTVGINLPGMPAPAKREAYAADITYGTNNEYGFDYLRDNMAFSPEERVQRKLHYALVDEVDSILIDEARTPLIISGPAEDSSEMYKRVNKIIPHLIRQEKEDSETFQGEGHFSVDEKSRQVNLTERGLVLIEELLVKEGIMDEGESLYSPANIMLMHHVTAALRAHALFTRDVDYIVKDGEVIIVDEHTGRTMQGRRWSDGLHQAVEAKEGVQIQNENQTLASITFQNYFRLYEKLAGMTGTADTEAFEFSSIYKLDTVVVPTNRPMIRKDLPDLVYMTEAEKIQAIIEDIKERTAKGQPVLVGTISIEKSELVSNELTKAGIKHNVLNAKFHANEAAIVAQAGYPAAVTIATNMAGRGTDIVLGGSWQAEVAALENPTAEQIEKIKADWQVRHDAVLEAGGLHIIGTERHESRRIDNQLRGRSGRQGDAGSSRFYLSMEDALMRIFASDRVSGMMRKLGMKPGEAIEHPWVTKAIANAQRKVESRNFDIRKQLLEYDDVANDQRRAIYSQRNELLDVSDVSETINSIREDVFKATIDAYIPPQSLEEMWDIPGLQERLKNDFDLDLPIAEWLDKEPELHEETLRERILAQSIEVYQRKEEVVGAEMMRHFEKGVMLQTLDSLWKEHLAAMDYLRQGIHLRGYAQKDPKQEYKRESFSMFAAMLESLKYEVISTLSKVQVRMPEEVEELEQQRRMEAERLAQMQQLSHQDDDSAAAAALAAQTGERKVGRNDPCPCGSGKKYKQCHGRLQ
pKd: −log10 of the molar value.

>  <Compound structure>
Nc1ncnc2c1ncn2[C@@H]1O[C@H](COP(=O)(O)OP(=O)(O)O)[C@@H](O)[C@H]1O

>  <pKd>
7.21

$$$$

---

Biological target: BsSecA (Bacillus subtilis, UniProt P28366)
Test: isothermal titration calorimetry
Format: binding
Measured property: Kd (nM)

>  <Compound structure>
Nc1ncnc2c1ncn2[C@@H]1O[C@H](COP(=O)(O)OP(=O)(O)O)[C@@H](O)[C@H]1O

>  <Readout number>
180

$$$$

---

Target: BsSecA (Bacillus subtilis, UniProt P28366, E208Q)
Test: isothermal titration calorimetry

>  <Compound structure>
Nc1ncnc2c1ncn2[C@@H]1O[C@H](COP(=O)(O)OP(=O)(O)O)[C@@H](O)[C@H]1O

>  <Unit name>
µM

>  <Kd>
7.7

$$$$
